Target: human V1a receptor (Homo sapiens)
Experiment: V1a binding assay (3H-AVP displacement, HEK-293 membranes)
Design: expressed in transfected cells; host or cells: HEK-293 (membranes)
Settings: 1.0 μM compound; read-out: V1a@1.0, % Inh
Label criterion met when inhibition at 1 µM is at or above 20%; anything below gets criterion not met.

>>> classification("O=c1[nH]c2ccccc2n1C1CCN(C(=S)NCCc2ccccc2)CC1")
"criterion met"
>>> classification("Cc1ccccc1NC(=O)N1CCC(n2c(=O)[nH]c3ccccc32)CC1")
"criterion not met"
>>> classification("CC(C)c1ccccc1NC(=O)N1CCC(n2c(=O)n(CCCN3CCCCC3)c3ccccc32)CC1")
"criterion met"
>>> classification("CSC(=O)NC(=N)N1CCC(n2c(=O)n(CCCN3CCCCC3)c3ccccc32)CC1")
"criterion not met"
>>> classification("O=C1c2ccccc2C(=O)N1CCCn1c(=O)n(C2CCN(C(=S)NC(c3ccccc3)c3ccccc3)CC2)c2ccccc21")
"criterion met"

Query: Does inhibition at 1 µM meet or surpass 20% for O=C(NC(c1ccccc1)c1ccccc1)N1CCC(n2c(=O)[nH]c3ccccc32)CC1 ?
Response: criterion met

Query: Does the molecule Cc1ccccc1NC(=O)N1CCC(n2c(=O)n(CCCN3CCCCC3)c3ccccc32)CC1 have recorded inhibition at 1 µM that is 20% or more?
Response: criterion met

Query: API: above_or_equal(metric=inhibition at 1 µM, cutoff=20%) for item O=C1CCCCN1CCCn1c(=O)n(C2CCN(C(=S)NC(c3ccccc3)c3ccccc3)CC2)c2ccccc21
Response: criterion met

Query: Would you say O=c1n(CCCN2CCCCC2)c2ccccc2n1C1CCN(C(=S)Nc2cccnc2)CC1 shows inhibition at 1 µM at minimum 20%?
Response: criterion not met

Query: Textbook exercise: given the entry CCCc1ccccc1NC(=O)N1CCC(n2c(=O)n(CCCN3CCCCC3)c3ccccc32)CC1 , state whether its inhibition at 1 µM is greater than or equal to 20%.
Response: criterion met

Query: Please tell me: is the molecule CCN(CC)CCn1c(=O)n(C2CCN(C(=S)NC(C)c3ccc(F)cc3)CC2)c2ccccc21 (stereo not shown) at or over 20% in terms of inhibition at 1 µM?
Response: criterion met

Query: I'd appreciate it if you could say whether NC(=O)CCn1c(=O)n(C2CCN(C(=S)NC(c3ccccc3)c3ccccc3)CC2)c2ccccc21 has inhibition at 1 µM at least equal to 20%.
Response: criterion met

Query: For this molecule, is measured inhibition at 1 µM 20% or higher? C[C@H](NC(=S)N1CCC(n2c(=O)n(CCCN3CCCCC3)c3ccccc32)CC1)c1ccccc1
Response: criterion met

Query: Exam item: decide whether the reported inhibition at 1 µM for O=C(NCc1ccccc1)N1CCC(n2c(=O)[nH]c3ccccc32)CC1 is at least 20%.
Response: criterion not met

Query: Determine whether measured inhibition at 1 µM meets or exceeds 20% for O=c1n(CCCN2CCCCC2)c2ccccc2n1C1CCN(C(=S)NCC2CCCO2)CC1 (stereo not shown)
Response: criterion not met

* * *

Biological target: human V1b receptor (Homo sapiens)
Sequence (P47901 whole entry): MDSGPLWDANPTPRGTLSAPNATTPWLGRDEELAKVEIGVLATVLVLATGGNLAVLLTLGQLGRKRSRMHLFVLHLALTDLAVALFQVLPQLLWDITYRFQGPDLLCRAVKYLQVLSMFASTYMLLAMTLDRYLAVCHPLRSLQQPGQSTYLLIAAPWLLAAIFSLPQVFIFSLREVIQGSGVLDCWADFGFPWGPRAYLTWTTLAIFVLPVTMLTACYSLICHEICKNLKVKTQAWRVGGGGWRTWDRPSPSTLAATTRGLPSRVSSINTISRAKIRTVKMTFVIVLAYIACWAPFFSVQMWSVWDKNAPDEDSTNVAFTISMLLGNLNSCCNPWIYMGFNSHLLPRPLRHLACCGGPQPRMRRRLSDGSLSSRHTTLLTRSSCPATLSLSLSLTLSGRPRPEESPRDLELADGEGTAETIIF
Test: V1b binding assay (3H-AVP displacement, HEK-293 membranes)
Parameters: expressed in transfected cells; host or cells: HEK-293 (membranes)
Details: 10 μM compound; read-out: V1b % Inh @10
Where a name gives a salt, the structure may show the parent alone.
parameter: inhibition at 10 µM (%)
Give the value, in units of %, as a plain number.

Check out these entries, answers already filled in.
>>> testvalue("COc1ccc(C(NC(=S)N2CCC(n3c(=O)n(CCCN)c4ccccc43)CC2)c2ccc(OC)cc2)cc1 [Compound 68, Hydrochloride]")
66
>>> testvalue("NCCCn1c(=O)n(C2CCN(C(=O)Nc3ccccc3-c3ccccc3)CC2)c2ccccc21 [Compound 62, hydrochloride]")
35

Query: # get_value(readout='inhibition at 10 µM', item= CN1CCN(CCCn2c(=O)n(C3CCN(C(=S)NC(c4ccccc4)c4ccccc4)CC3)c3ccccc32)CC1 )
Response: 41

Query: # get_value(readout='inhibition at 10 µM', item= CC(=O)NCCNC(=O)C(Cc1ccccc1)NC(=S)N1CCC(n2c(=O)[nH]c3ccccc32)CC1 (stereo not shown) )
Response: 24

Query: Query (compound): O=C(NC(=S)N1CCC(n2c(=O)[nH]c3ccccc32)CC1)c1ccccc1 ; field requested: inhibition at 10 µM
Response: 13

Query: What value of measured inhibition at 10 µM is listed for NCCCn1c(=O)n(C2CCN(C(=S)NC(c3ccccc3)c3ccccc3)CC2)c2cc(Cl)c(Cl)cc21 ?
Response: 45

Query: Field request: inhibition at 10 µM | item: O=c1[nH]c2ccccc2n1C1CCN(C(=S)NCc2ccccc2Cl)CC1
Response: 0

* * *

Molecular target: human V2 receptor (Homo sapiens, UniProt P30518)
Sequence (P30518 whole entry): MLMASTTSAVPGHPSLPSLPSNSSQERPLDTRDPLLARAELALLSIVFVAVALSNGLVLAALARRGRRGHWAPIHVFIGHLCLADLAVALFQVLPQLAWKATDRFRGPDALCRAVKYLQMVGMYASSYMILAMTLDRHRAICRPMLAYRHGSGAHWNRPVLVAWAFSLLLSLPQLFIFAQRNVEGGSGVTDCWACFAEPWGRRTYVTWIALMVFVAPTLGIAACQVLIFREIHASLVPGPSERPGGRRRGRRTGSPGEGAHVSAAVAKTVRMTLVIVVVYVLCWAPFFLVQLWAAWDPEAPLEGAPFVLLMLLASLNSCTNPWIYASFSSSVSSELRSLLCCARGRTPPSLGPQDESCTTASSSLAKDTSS
Assay: V2 binding assay (3H-AVP displacement, HEK-293 membranes)
Set-up: expressed in transfected cells; host or cells: HEK-293 (membranes)
Settings: 1.0 μM compound; read-out: V2@1.0, % Inh
parameter: inhibition at 1 µM (%)
Report as a plain number; the unit % is understood.

Below, 5 compounds whose answers are already recorded.
>>> testvalue("O=c1n(CCCN2CCCCC2)c2ccccc2n1C1CCN(C(=S)NCC2CCCO2)CC1 (stereo not drawn) [Compound 159]")
0
>>> testvalue("O=C(Nc1ccccc1-c1ccccc1)N1CCC(n2c(=O)[nH]c3ccccc32)CC1 [Compound 49]")
0
>>> testvalue("CC(=O)NCCCn1c(=O)n(C2CCN(C(=S)NC(c3ccccc3)c3ccccc3)CC2)c2ccccc21 [Compound 76]")
0
>>> testvalue("COC(=O)C(Cc1ccccc1)NC(=S)N1CCC(n2c(=O)n(CCCN3C(=O)c4ccccc4C3=O)c3ccccc32)CC1 (stereo not drawn) [Compound 56]")
3
>>> testvalue("CN1CCN(C(=O)C(Cc2ccccc2)NC(=S)N2CCC(n3c(=O)[nH]c4ccccc43)CC2)CC1 (stereo not drawn) [Compound 45]")
9

Query: I'd like to know its inhibition at 1 µM. The compound in question is CC(C)(C)OC(=O)NCCNC(=O)C(Cc1ccccc1)NC(=S)N1CCC(n2c(=O)[nH]c3ccccc32)CC1 (stereo not drawn) [Compound 46]
Response: 0

Query: Please report the recorded inhibition at 1 µM for O=c1n(CCCN2CCOCC2)c2ccccc2n1C1CCN(C(=S)NC(c2ccccc2)c2ccccc2)CC1 [Compound 84] .
Response: 8

Query: Need inhibition at 1 µM of COc1cc(CNC(=S)N2CCC(n3c(=O)[nH]c4ccccc43)CC2)cc(OC)c1OC [Compound 20] , thanks.
Response: 0

Query: Sample O=C(NC(c1ccccc1)c1ccccc1)N1CCC(n2c(=O)n(CCCN3CCOCC3)c3ccccc32)CC1 [Compound 95] — what was its inhibition at 1 µM?
Response: 2

Query: Entry under review: Cc1ccccc1CNC(=O)N1CCC(n2c(=O)n(CCCN3CCCCC3)c3ccccc32)CC1 [Compound 151] . Reported inhibition at 1 µM?
Response: 0

Query: Look up inhibition at 1 µM for this compound: O=c1n(Cc2ccccc2)c2ccccc2n1C1CCN(C(=S)NC(c2ccccc2)c2ccccc2)CC1 [Compound 37]
Response: 2

Query: Could you tell me which inhibition at 1 µM is on file for O=C(NCc1ccccc1F)N1CCC(n2c(=O)n(CCCN3CCCC3)c3ccccc32)CC1 [Compound 89] ?
Response: 0

Query: Reported inhibition at 1 µM for COc1cc(NC(=S)N2CCC(n3c(=O)[nH]c4ccccc43)CC2)cc(OC)c1OC [Compound 6] : what is it?
Response: 9

Query: Using the record for O=c1n(CCCN2CCCCCCC2)c2ccccc2n1C1CCN(C(=S)NC(c2ccccc2)c2ccccc2)CC1 [Compound 142] , report its inhibition at 1 µM.
Response: 4

Query: What does the data say about its inhibition at 1 µM? Entry: CC1CCN(CCCn2c(=O)n(C3CCN(C(=O)NC(c4ccccc4)c4ccccc4)CC3)c3ccccc32)CC1 [Compound 99]
Response: 16

* * *

Target: human V1a receptor (Homo sapiens, UniProt P37288)
Sequence (P37288 whole entry): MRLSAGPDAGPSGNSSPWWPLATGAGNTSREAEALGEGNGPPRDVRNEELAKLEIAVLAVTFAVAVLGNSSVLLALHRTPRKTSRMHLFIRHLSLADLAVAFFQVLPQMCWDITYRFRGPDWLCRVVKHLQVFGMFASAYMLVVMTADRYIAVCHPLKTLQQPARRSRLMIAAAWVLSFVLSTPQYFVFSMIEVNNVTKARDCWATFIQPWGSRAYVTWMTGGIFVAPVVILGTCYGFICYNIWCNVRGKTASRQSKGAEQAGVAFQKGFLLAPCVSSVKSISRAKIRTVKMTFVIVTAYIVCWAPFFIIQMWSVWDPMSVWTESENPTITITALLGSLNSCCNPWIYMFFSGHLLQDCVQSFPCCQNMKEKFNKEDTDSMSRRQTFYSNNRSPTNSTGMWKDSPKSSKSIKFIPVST
Experiment: V1a binding assay (3H-AVP displacement, HEK-293 membranes)
Set-up: expressed in transfected cells; host or cells: HEK-293 (membranes)
Conditions: 1.0 μM compound; read-out: V1a@1.0, % Inh
parameter: inhibition at 1 µM

Some compounds with known inhibition at 1 µM results, for comparison:
>>> testvalue("CN(C)c1ccc(CNC(=S)N2CCC(n3c(=O)n(CCCN4CCCCC4)c4ccccc43)CC2)cc1 [Compound 165]")
"40%"
>>> testvalue("CN1CCN(CCCn2c(=O)n(C3CCN(C(=S)NC(c4ccccc4)c4ccccc4)CC3)c3ccccc32)CC1 [Compound 78]")
"95%"
>>> testvalue("O=c1n(CCCN2CCCCCC2)c2ccccc2n1C1CCN(C(=S)NC(c2ccccc2)c2ccccc2)CC1 [Compound 141]")
"83%"
>>> testvalue("COc1cccc(CNC(=S)N2CCC(n3c(=O)[nH]c4ccccc43)CC2)c1OC [Compound 18]")
"22%"
>>> testvalue("COc1ccc(NC(=S)N2CCC(n3c(=O)[nH]c4ccccc43)CC2)cc1 [Compound 5]")
"38%"

Query: Dear colleague, I am looking for the recorded inhibition at 1 µM of the following compound: O=C(Nc1ccccc1-c1ccccc1)N1CCC(n2c(=O)[nH]c3ccccc32)CC1 [Compound 49]
Response: 63%

Query: Sample O=C(NCc1ccccc1)N1CCC(n2c(=O)n(CCCN3CCCCC3)c3ccccc32)CC1 [Compound 106] — what was its inhibition at 1 µM?
Response: 56%

Query: Given the compound CCCNC(=S)N1CCC(n2c(=O)n(CCCN3CCCCC3)c3ccccc32)CC1 [Compound 128] , what is its reported inhibition at 1 µM?
Response: 12%
